- tgt: EP300 (P300(1048-1664)) (Homo sapiens)
- Construct: P300(1048-1664)
- Sequence (Q09472 1048-1664): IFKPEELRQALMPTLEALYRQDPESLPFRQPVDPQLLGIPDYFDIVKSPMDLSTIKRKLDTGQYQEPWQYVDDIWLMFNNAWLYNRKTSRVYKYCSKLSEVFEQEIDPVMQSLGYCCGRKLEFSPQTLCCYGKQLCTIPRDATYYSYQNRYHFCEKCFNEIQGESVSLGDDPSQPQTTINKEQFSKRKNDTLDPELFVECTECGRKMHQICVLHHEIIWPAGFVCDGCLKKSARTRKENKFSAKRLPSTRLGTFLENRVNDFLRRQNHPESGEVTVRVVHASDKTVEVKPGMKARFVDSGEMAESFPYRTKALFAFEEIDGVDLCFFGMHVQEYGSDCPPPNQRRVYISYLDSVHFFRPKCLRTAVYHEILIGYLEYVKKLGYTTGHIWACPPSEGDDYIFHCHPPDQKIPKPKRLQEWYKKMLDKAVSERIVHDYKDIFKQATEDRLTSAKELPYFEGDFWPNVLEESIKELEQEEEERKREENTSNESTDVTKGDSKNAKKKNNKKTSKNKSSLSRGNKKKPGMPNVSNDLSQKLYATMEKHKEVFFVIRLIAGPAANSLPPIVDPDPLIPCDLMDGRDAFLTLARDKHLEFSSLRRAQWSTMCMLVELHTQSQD
- assay_details: Biochemical assay for EP300, SAMDI
- details: EP300, SAMDI; read-out: EP300 Biochemistry IC50
True if IC50 is below 10 nM. False if not; exact matches included in False.

CCn1ncc(CN(C)C(=O)c2cc(-c3ccc(NCCNC)c(C)n3)nc3ccc(Cl)cc23)c1C [Compound 3]; True
CCn1ncc(CN(C)C(=O)c2nc(N3CCNCC3)nc3ccc(Cl)cc23)c1C [Compound 202]; False
CCc1ncc(CN(C)C(=O)c2nc(-c3cc(Cl)c4[nH]cnc4c3)nc3ccc(COC)cc23)n1C [Compound 523]; True
CCc1ncc(CN(C)C(=O)c2cc(-c3ccc(NCCNC)c(C)n3)nc3ccc(Cl)cc23)o1 [Compound 560]; False
CCn1ncc(CN(C)C(=O)c2cc(-c3cc(NC4CNC4)cc(C)n3)nc3ccc(Cl)cc23)c1C [Compound 547]; False

Could you please tell me whether IC50 recorded for CCn1ncc(CN(C)C(=O)c2nc(-c3cc(C)c4c(N)n[nH]c4c3)nc3ccc(COC)cc23)c1C [Compound 524] is less than 10 nM?
True

Item: CCn1ncc(CN(C)C(=O)c2nc(-c3ccc(OCCNC)nn3)nc3ccc(Cl)cc23)c1C [Compound 414]
False

Item: CCn1ncc(CN(C)C(=O)c2nc(-c3cc(C)cc(CNC)c3)nc3ccc(Cl)cc23)c1C [Compound 69]
False

Item: CCn1ncc(CN(C)C(=O)c2nc(-c3cc(C)cc(NC4CCNC4)c3)cc3ccc(Cl)cc23)c1C (stereo not drawn) [Compound 383]
True
